Hello, the source for this data is patent US20200109188A1, in case you need it.

- TARGET_SYSTEM: HA of H3-LA87 (A/Los Angeles/7/09 (H3N2)) virus (influenza A virus)
- TEST_DESCRIPTION: cell-based or functional assay

# BINDER, Neutralization IC50, H3-LA87
data = [
    ("Antibody 8 (antibody, V domains shown) VH: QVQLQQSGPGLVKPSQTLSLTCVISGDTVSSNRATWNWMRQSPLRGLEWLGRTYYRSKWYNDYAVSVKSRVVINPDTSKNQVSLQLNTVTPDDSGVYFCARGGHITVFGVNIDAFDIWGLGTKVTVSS VL: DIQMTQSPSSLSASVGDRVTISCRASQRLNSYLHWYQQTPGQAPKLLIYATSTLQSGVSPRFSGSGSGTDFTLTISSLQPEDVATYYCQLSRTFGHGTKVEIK", "> 50 µg/mL"),
]
